# System: human normal liver cell line WRL-68
# assay.method.text: MTT cell viability assay, WRL68
# Assay type: cell-based
# test.settings: 24 h treatment
measure: IC50 (µg/mL)
Enter your answer as a number in µg/mL; do not include the unit.

> print(dat)
                                   molecule  measure  unit.of.measure  number
1  COc1ccc(/C=C/C(=O)c2ccc(C)cc2)cc1 [Compound 15, 3-(4-Methoxyphenyl)-1-p-tolylpropenone]     IC50            µg/mL    50.9

q: Given the entry COc1ccc(/C=C/C(=O)c2ccccc2)cc1 [Compound 13, 3-(4-Methoxyphenyl)-1-phenylpropenone] , report its measured IC50.
a: 21.5

q: Given the entry Cc1ccc(C(=O)/C=C/c2ccc(N(C)C)cc2)cc1 [Compound 19] , report its measured IC50.
a: 39.8

q: Given the entry Cc1ccc(C(=O)/C=C/c2ccccc2)cc1 [Compound 3, 3-Phenyl-1-p-tolylpropenone] , report its measured IC50.
a: 21.3

q: Given the entry O=C(/C=C/c1ccccc1Cl)c1ccccc1 [Compound 5, 3-(2-Chlorophenyl)-1-phenylpropenone] , report its measured IC50.
a: 11.5
